# experimental-system: corticotropin releasing factor 1 receptor
# experiment-description: cell-based or functional assay
Ends that are not written are not given here.
measured-parameter: CRF1R EC50 (nM)
API: value field is a number in nM; no unit string.

binder	CRF1R EC50 / nM
ZGPPISIDLPAQLLRKMIEIEKQEKEKQQAANNRLLLDTI (C-terminal amide) [SEQ ID NO 211]	826
ZGPPISIDLSIGLLRKMIEIEKQEKEKQQAANNRLLLDTI (C-terminal amide) [SEQ ID NO 25]	677
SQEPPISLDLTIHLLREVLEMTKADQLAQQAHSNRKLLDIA-NH2 [SEQ ID NO 87]	100

Consider the record given below.
q: Item under review: ZGPPISIDLPFQLLRKMIEIEKQEKEKQQATTNARLLARV (C-terminal amide) [SEQ ID NO 23] . Reported CRF1R EC50?
a: 1000
